System: primary human T-cells
Listed compounds paired with reported pEC50
# pEC50 = -log10(concentration in molar units)

Would you please look over these solved cases?
>>> reported_measurement("COC(=O)N1CCC(OC)(c2nnc(-c3cc4c(cc3F)S(=O)(=O)C[C@H](N)C(=O)N4Cc3ccc(Cl)cc3)o2)CC1 [Example 132]")
5.71
>>> reported_measurement("N[C@H]1CS(=O)(=O)c2cc(F)c(-c3noc(N4[C@@H]5CC[C@H]4COC5)n3)cc2N(Cc2ccc(Cl)cc2)C1=O [Example 200]")
6.85

Identify pEC50 associated with the compound CN1CC(c2nc(-c3cc4c(cc3F)S(=O)(=O)C[C@H](N)C(=O)N4Cc3ccc(Cl)cc3)no2)CC(F)(F)C1 (stereo partly shown) [Example 323] 6.40

Identify pEC50 associated with the compound N[C@H]1C[S+]([O-])c2cc(F)c(-c3noc(N4CCOC5CC54)n3)cc2N(Cc2ccc(Cl)cc2)C1=O (single isomer, unassigned; epimer a) [Example 207] 5.36

Identify pEC50 associated with the compound CC(C)(CO)c1nnc(-c2cc3c(cc2F)S(=O)(=O)C[C@H](N)C(=O)N3Cc2ccc(C#N)cc2)o1 [Example 188] 5.50

Identify pEC50 associated with the compound CC1(c2nnc(-c3ccc4c(c3)N(Cc3ccc(Cl)cc3)C(=O)[C@@H](N)CS4(=O)=O)o2)CCN(C(=O)OCC(F)(F)F)CC1 [Example 382] 5.77

Identify pEC50 associated with the compound CC(N)(c1nnc(-c2ccc3c(c2)N(Cc2ccc(Cl)cc2)C(=O)[C@@H](N)CS3(=O)=O)o1)C(F)(F)F (stereo partly shown) [Example 362] 5.76

Identify pEC50 associated with the compound N[C@H]1CS(=O)(=O)c2cc(F)c(-c3noc(C(N)(c4ccc(F)cc4)C(F)(F)F)n3)cc2N(Cc2ccc(Cl)cc2)C1=O (stereo partly shown) [Example 300] 6.61

###

Test system: primary human T-cells
experiment_notes: Proliferation assay after 5 days (CellTiter-Glo, CD3 stimulation; PBS counter screen)
Assay type: cell-based
condition_description: Homo sapiens, T-cell, 120 h, primary human T-cells, CD3 stimulation, CellTiter-Glo after 5 days; EC50 of fitted sigmoidal curve; read-out: Tcell Proliferation CD3 EC50
readout_label: pEC50
# pEC50 = -log10(concentration in molar units)

Would you please look over these solved cases?
>>> reported_measurement("CN1CCCC(C)(c2nnc(-c3cc4c(cc3F)S(=O)(=O)C[C@H](N)C(=O)N4Cc3ccc(Cl)cc3)o2)C1 (stereo partly shown) [Example 145]")
6.37
>>> reported_measurement("CC(F)(F)CNC(=O)c1nc(-c2cc3c(cc2F)S(=O)(=O)C[C@H](N)C(=O)N3Cc2ccc(Cl)cc2)no1 [Example 295]")
5.86

Identify pEC50 associated with the compound CC(C)(CN1CCCCC1)c1nnc(-c2cc3c(cc2F)S(=O)(=O)C[C@H](N)C(=O)N3Cc2ccc(Cl)cc2)o1 [Example 141] 6.11

###

Listed molecules paired with reported pEC50
System: primary human T-cells
experiment_notes: Proliferation assay after 5 days (CellTiter-Glo, CD3 stimulation; PBS counter screen)
Assay type: cell-based
condition_description: Homo sapiens, T-cell, 120 h, primary human T-cells, CD3 stimulation, CellTiter-Glo after 5 days; EC50 of fitted sigmoidal curve; read-out: Tcell Proliferation CD3 EC50
# pEC50 = -log10(concentration in molar units)

>>> reported_measurement("CC(C)(C)c1nnc(-c2ccc3c(c2)N(Cc2ccc(Oc4ccc(F)cc4)cc2)C(=O)[C@@H](N)CS3(=O)=O)o1 [Example 439]")
6.52
>>> reported_measurement("CC(C)(C)c1nnc(-c2cc3c(cc2F)S(=O)(=O)C[C@H](NC(=O)CN)C(=O)N3Cc2ccc(Cl)cc2)o1 [Example 266]")
7.11
>>> reported_measurement("CN1CC(c2nnc(-c3ccc4c(c3)N(Cc3ccc(Cl)cc3)C(=O)[C@@H](N)CS4(=O)=O)o2)CC(F)(F)C1 (stereo partly shown) [Example 385]")
5.83
>>> reported_measurement("CCn1cnc(-c2cc3c(cc2F)S(=O)(=O)C[C@H](N)C(=O)N3Cc2ccc(Cl)cc2)n1 [Example 285]")
5.26
>>> reported_measurement("N[C@H]1CS(=O)(=O)c2ccc(-c3nnc(C4(N)CCOCC4)o3)cc2N(Cc2ccc(OC(F)(F)F)cc2)C1=O [Example 418]")
5.02

Attention now shifts to the item below.
Identify pEC50 associated with the molecule CC(C)(C)c1nnc(-c2cc3c(cc2F)S(=O)(=O)C[C@H](N)C(=O)N3Cc2ccc(S(C)(=O)=O)c(F)c2)o1 [Example 242] 5.47
